assay: Chinese hamster ovary cell cytotoxicity MTT assay; details: CHO cells
Readout Kind: CC50 at 44 h (µM)
Form entry: value (µM) — number only.

Take a look at these entries with their results.
{"Smiles String": "Cc1c(Cl)c(=O)oc2cc(OCCN3CCC(Cc4ccccc4)CC3)ccc12", "Measured Number": 33}
{"Smiles String": "O=c1cc(C(F)(F)F)c2ccc(OCCN3CCN(Cc4ccc(Br)cc4)CC3)cc2o1", "Measured Number": 26.3}
{"Smiles String": "Cc1c(C#N)c(=O)oc2cc(OCCN3CCN(Cc4ccc(Br)cc4)CC3)ccc12", "Measured Number": 41.2}

Now take the following compound into account.
Ask: Recorded CC50 at 44 h of "Cc1cc(=O)oc2cc(OCCN3CCN(Cc4ccc(Br)cc4)CC3)ccc12" , please.
Result: 15.5

Source of measurements: paper PMC6151660
